Test system: RSK4(Kin.Dom.2-C-terminal);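 note: KINOMEscan kinase panel screen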
Construct: gene RPS6KA6
settings: concentration: 1 μM, replicates: in singlicate; n = 1
# thresholds on %Inh define classes: 1: < 3%; 2: ≥ 3% and < 20%; 3: ≥ 20%

>>> discrete_label("CN(C)S(=O)(=O)c1cc(-c2ccc3nccc(-c4cccc(S(N)(=O)=O)c4)c3c2)cnc1N")
3
>>> discrete_label("COc1cc(Nc2nccc(N3CCC(NC(=O)Nc4cccc(C(C)=O)c4)C3)n2)cc(OC)c1OC (stereo not drawn)")
2
>>> discrete_label("O=C(Nc1cccc(-c2nn3ncccc3c2-c2ccnc(Nc3ccccc3)n2)c1)c1c(F)cccc1F")
3
>>> discrete_label("COc1cc(Nc2nccc(-c3c(-c4cccc(NC(=O)c5c(F)cccc5F)c4)nn4ncccc34)n2)cc(OC)c1OC")
2
>>> discrete_label("CN1CCN(Cc2cccc(-c3ccc4c(Nc5ccc(Oc6ccccc6)cc5)ccnc4c3)c2)CC1")
1
>>> discrete_label("Nc1ncc(-c2ccc3nccc(-c4ccncc4)c3c2)cc1S(=O)(=O)N1CCOCC1")
3
>>> discrete_label("Cl.NC(=O)c1cccc(Nc2nccc(Nc3ccc(Oc4c(Cl)cccc4Cl)c(Cl)c3)n2)c1")
1
>>> discrete_label("COc1ccc(CNC(=O)NC2CCN(c3ccnc(Nc4ccc(F)cc4)n3)CC2)cc1")
2

Now look at this one.
Q: Lab log: `Cc1occc1-c1ncc(OC[C@@H](N)Cc2c[nH]c3ccccc23)cc1-c1ccc2[nH]nc(C)c2c1.O=C(O)C(F)(F)F` — assign %Inh category
A: 1
